Molecular target: T1, alcalase (trade name "Alcalase 2.5L", Novozymes) (UniProt P00780)
T1 sequence (looked up): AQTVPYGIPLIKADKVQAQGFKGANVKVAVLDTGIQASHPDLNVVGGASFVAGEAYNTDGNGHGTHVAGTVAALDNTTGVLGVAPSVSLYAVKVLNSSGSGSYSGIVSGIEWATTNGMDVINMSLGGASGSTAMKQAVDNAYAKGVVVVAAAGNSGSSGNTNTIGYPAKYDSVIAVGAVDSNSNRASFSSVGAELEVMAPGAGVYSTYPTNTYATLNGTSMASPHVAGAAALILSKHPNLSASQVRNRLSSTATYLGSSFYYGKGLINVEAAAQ
Experiment: cell-based or functional assay
measure: Protease activity upon dilution (%) immediately after preparation
Report the figure in % without appending any unit label.

Example entries and their recorded answers appear below.
1) proteinaceous protease inhibitor of SEQ ID NO:34 (protein) MSSVEKKPEGVNTGAGDRHNLKTEWPELVGKSVEEAKKVILQDKSEAQIIVLPVGTIVTMEYRADRVRLFVDKLDNIAQVPRVG :: 75
2) proteinaceous protease inhibitor of SEQ ID NO:24 (protein) TDTGDHHNQKTEWPELVGKSVEEAKKVILQDKSEAQIVVLPVGTIVTGEYRIDRVRLFVDSLDKIAQVPAVG :: 82
3) proteinaceous protease inhibitor of SEQ ID NO:27 (protein) TDTGDHHNQKTKWPELVGKSVEEAKKVILQDKSEAQIVVLPVGTIVTMEYRIDRVRLFVDSLDKIAQVPRVG :: 98
4) proteinaceous protease inhibitor of SEQ ID NO:6 (protein) TDTGDHHNQKTEWPELVGKSVEEAKKVILQDKSEAQIIVLPVGTIVTMEYRIDRVRLFVDSLDKIAQVPRVG :: 10

We next turn to a different binder, shown below.
Data request, read-out Protease activity upon dilution (%) immediately after preparation, for proteinaceous protease inhibitor of SEQ ID NO:26 (protein) TDTGDHHNQKTDWPELVGKSVEEAPKVILQDKSEAPIAVLPVGTLVTAEAAAARVRLFVDSLDKIAQVPAVG
85

Reference for the values: patent US20140357543A1
